Measured protein stability index values are reported for all entries that follow.
B1: INTS3 (parent)
chain: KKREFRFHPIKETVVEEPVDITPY

Variants of: B1
Protocol text: protein stability index of a GFP-peptide fusion (GPS, HEK-293T) (PSI 1-6); higher = more stable;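 also: lentivirally expressed fusions sorted by FACS into six bins by GFP to DsRed ratio, PSI derived from sequencing read proportions per bin multiplied by bin number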
Details: c terminus: a fixed tail appended
Measured metric: protein stability index

INSERT INTO results (mutant_label, measured_metric, result) VALUES
  ('T22G', 'protein stability index', 2.03),
  ('P23C', 'protein stability index', 2.08),
  ('T13Y', 'protein stability index', 3.62),
  ('H8M', 'protein stability index', 3.79),
  ('T22A', 'protein stability index', 1.45);
